- PROTOCOL_NOTES: clinical
- EXPERIMENTAL_CONDITIONS: human, plasma, po, 2 mg

# COMPOUND, concentration at 0.5 h / ng/mL
records = [
    ("CCOc1cc(CC(=O)N[C@@H](CC(C)C)c2ccccc2N2CCCCC2)ccc1C(=O)O [AG-EE 623 ZW]", 50.4),
]

###

- PROTOCOL_NOTES: clinical
- EXPERIMENTAL_CONDITIONS: human, plasma, po, 2 mg

# GIVEN_SMILES, concentration at 3 h
records = [
    ("CCOc1cc(CC(=O)N[C@@H](CC(C)C)c2ccccc2N2CCCCC2)ccc1C(=O)O", "4.3 ng/mL"),
]

Origin of the recorded values: patent US6143769A
